Cited source for all entries: patent US7173005

Target: human IGF-1 receptor (IGF-1R) (human, UniProt P08069)
Test: competition
What pKi was measured for each of the following?
Scale explanation: pKi corresponds to minus log10 of a concentration expressed in moles per litre.

The reported value for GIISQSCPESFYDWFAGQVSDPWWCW [S326 / G33] in terms of pKi is 5.84

get_value(item= GSLDESFYDWFERQLG [S386 / RP9 without terminal lysines] , readout=pKi) returns 6.38

WLDQERAWLWCEISGRGCLSGGSGGSGSLDESFYDWFERQLGKK [D815-6aa-RP9] yielded pKi of 7.44
